pEC50 overview
molecular target: NMDAR2A (Homo sapiens); experiment: Potentiation of [3H]MK-801 binding, NMDAR2A; conditions: NMDAR2A binding profile, wild-type
Sequence (Q12879 23-1464, species assumed, other chains not shown): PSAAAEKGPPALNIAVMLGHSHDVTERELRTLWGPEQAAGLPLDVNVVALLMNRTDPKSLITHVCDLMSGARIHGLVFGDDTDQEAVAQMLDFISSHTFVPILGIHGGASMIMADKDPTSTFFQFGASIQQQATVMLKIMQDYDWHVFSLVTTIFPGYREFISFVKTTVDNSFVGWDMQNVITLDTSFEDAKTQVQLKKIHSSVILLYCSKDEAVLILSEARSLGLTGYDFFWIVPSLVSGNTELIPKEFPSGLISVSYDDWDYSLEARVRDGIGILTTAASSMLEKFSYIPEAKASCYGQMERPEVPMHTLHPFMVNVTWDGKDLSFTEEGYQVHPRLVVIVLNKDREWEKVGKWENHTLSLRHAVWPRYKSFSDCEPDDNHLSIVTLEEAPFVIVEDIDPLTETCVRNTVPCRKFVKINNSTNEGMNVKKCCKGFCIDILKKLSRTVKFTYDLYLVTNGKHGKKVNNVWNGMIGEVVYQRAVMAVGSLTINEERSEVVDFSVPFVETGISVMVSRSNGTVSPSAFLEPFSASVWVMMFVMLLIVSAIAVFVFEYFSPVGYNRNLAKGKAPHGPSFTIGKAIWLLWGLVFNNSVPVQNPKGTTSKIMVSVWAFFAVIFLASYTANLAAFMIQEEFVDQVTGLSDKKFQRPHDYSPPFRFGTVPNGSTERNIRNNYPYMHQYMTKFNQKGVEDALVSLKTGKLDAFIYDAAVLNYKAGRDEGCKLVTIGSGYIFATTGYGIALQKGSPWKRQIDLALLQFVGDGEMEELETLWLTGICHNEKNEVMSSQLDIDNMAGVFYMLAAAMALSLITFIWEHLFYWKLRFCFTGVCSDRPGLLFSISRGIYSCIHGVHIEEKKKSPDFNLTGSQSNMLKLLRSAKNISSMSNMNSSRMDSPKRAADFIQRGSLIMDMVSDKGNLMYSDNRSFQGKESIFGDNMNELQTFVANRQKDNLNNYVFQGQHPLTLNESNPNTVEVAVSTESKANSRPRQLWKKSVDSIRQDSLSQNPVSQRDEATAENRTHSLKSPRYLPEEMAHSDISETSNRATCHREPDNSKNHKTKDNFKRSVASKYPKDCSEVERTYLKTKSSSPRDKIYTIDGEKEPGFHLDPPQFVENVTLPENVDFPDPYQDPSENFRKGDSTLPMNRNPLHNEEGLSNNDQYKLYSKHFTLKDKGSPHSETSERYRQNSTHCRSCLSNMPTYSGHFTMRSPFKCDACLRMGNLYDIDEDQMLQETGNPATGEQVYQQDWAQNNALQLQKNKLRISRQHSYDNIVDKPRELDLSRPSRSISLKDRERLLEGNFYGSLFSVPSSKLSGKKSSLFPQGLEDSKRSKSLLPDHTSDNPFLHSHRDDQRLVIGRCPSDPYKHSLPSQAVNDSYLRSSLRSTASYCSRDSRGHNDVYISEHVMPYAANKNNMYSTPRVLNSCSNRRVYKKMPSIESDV
pEC50: −log10 of the molar value.
Quantity name: pEC50

• CC(C)CN1CCC[C@@]12CN([C@H](C(N)=O)[C@@H](C)O)C2=O [Compound B] = 9.01
• CC(C)CN1CCC[C@]12CN([C@H](C(N)=O)[C@@H](C)O)C2=O [Compound A] = 11.34
